Data provenance is ChEMBL document CHEMBL5291721.

target: Motilin receptor (Homo sapiens); further: assay procedure not described here
Sequence (O43193 whole entry): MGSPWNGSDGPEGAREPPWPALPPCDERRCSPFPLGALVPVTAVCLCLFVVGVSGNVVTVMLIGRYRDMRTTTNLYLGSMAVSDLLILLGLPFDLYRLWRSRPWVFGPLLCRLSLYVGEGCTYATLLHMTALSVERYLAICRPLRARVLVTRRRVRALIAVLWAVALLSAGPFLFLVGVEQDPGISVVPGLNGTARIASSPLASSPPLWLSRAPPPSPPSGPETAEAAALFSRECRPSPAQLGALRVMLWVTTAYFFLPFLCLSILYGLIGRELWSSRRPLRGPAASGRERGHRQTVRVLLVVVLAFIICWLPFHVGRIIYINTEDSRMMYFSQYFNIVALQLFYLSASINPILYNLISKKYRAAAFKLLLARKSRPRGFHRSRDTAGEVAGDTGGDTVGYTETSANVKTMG
Quick list: AC50 per entry.

These solved cases illustrate the format of a correct answer.
* CC[C@H]1OC(=O)[C@H](C)[C@@H](O[C@H]2C[C@@](C)(OC)[C@@H](O)[C@H](C)O2)[C@H](C)[C@@H](O[C@@H]2O[C@H](C)C[C@H](N(C)C)[C@H]2O)[C@](C)(O)C[C@@H](C)CN(C)[C@H](C)[C@@H](O)[C@]1(C)O | > 10 µM
* CN1CCN(CC/C=C2/c3ccccc3Sc3ccc(S(=O)(=O)N(C)C)cc32)CC1 | > 10 µM

Inquiry: Need AC50 of CC(CC(c1ccccc1)c1ccccc1)NC(C)(C)C (centres undefined) , thanks.
Reply text: > 30 µM

Inquiry: Need AC50 of CN(C)CCC=C1c2ccccc2C=Cc2ccccc21 , thanks.
Reply text: > 10 µM

Inquiry: Need AC50 of Cc1cccc(Nc2ccccc2C(=O)O)c1C , thanks.
Reply text: > 10 µM

Inquiry: Need AC50 of CCOC(=O)OC(C)OC1=C(C(=O)Nc2ccccn2)N(C)S(=O)(=O)c2ccccc21 (centres undefined) , thanks.
Reply text: > 30 µM

Inquiry: Need AC50 of CCCN1C[C@H](CSC)C[C@@H]2c3cccc4[nH]cc(c34)C[C@H]21 [PERGOLIDE] , thanks.
Reply text: > 30 µM

Inquiry: Need AC50 of O=C1Nc2ccc(Cl)cc2[C@@](C#CC2CC2)(C(F)(F)F)O1 , thanks.
Reply text: > 30 µM
